Listing of entries alongside the reported hepatocyte CLint.
ASSAY OVERVIEW: Intrinsic clearance in human hepatocytes assessed per million cells
Type: ADME, cell-based, Hepatocyte
COND: read-out: CLH

COMPOUND	hepatocyte CLint, µL/min/1e6 cells
CC(C)CN1CCc2c(ccc3[nH]ncc23)[C@H]1c1ccc(/C=C/C(=O)O)cc1	51
CC(C)CN1[C@H](c2c(F)cc(/C=C/C(=O)O)cc2F)c2ccc3[nH]ncc3c2C[C@H]1C	22
CC(C)CN1CCc2c(ccc3[nH]ccc23)C1c1ccc(/C=C/C(=O)O)cc1 (stereo unspecified)	8
COc1cc(/C=C/C(=O)O)ccc1[C@]1(C)c2ccc3[nH]ncc3c2C[C@@H](C)N1CC(C)(C)F	4
COc1cc(/C=C/C(=O)O)ccc1[C@@H]1c2ccc3[nH]ncc3c2C[C@@H](C)N1CC(C)(C)F	6
COc1cc(/C=C/C(=O)O)c(F)cc1[C@@H]1c2ccc3[nH]ncc3c2C[C@@H](C)N1CC(C)(F)F	5
CC(C)CN1[C@H](c2ccc(/C=C/C(=O)O)cc2)c2ccc3[nH]ncc3c2C[C@H]1C	30
C[C@@H]1Cc2c(ccc3[nH]ncc23)[C@@H](c2ccc(/C=C/C(=O)O)cc2)N1CC(C)(C)F	78
COc1cc(/C=C/C(=O)O)cc(F)c1[C@@H]1c2ccc3[nH]ncc3c2C[C@@H](C)N1CC(C)(F)F	6
CC(C)CN1[C@H](c2ccc(/C=C/C(=O)O)cc2)c2ccc3[nH]ncc3c2CC1(C)C	93
C[C@@H]1Cc2c(ccc3[nH]ncc23)[C@@H](c2c(F)cc(/C=C/C(=O)O)cc2F)N1CC(C)(C)F	17
C[C@@H]1Cc2c(ccc3[nH]ncc23)[C@@H](c2c(F)cc(/C=C/C(=O)O)cc2F)N1CC(C)(F)F	8
C[C@@H]1Cc2c(ccc3[nH]ncc23)[C@@](C)(c2c(F)cc(/C=C/C(=O)O)cc2F)N1CC(C)(F)F	6
COc1cc(/C=C/C(=O)O)ccc1[C@@H]1c2ccc3[nH]ncc3c2C[C@@H](C)N1CC(C)(F)F	5
C[C@@H]1Cc2c(ccc3[nH]ncc23)[C@@](C)(c2c(F)cc(/C=C/C(=O)O)cc2F)N1CC(C)(C)F	10
COc1c([C@@H]2c3ccc4[nH]ncc4c3C[C@@H](C)N2CC(C)(F)F)ccc(/C=C/C(=O)O)c1F	7

* * *

ASSAY OVERVIEW: Intrinsic clearance in rat hepatocytes assessed per million cells
Format: ADME, cell-based, Hepatocyte
COND: read-out: CLH
Listing of entries alongside the reported hepatocyte CLint.

STRUCTURE SMILES STRING	hepatocyte CLint, µL/min/1e6 cells
COc1cc(/C=C/C(=O)O)ccc1[C@@H]1c2ccc3[nH]ncc3c2C[C@@H](C)N1CC(C)(F)F	18
CC(C)CN1[C@H](c2ccc(/C=C/C(=O)O)cc2)c2ccc3[nH]ncc3c2C[C@H]1C	7
COc1cc(/C=C/C(=O)O)ccc1[C@]1(C)c2ccc3[nH]ncc3c2C[C@@H](C)N1CC(C)(C)F	10
CC(C)CN1[C@H](c2ccc(/C=C/C(=O)O)cc2)c2ccc3[nH]ncc3c2CC1(C)C	6

* * *

TESTED SYSTEM: Voltage-gated inwardly rectifying potassium channel KCNH2 (Homo sapiens)
Sequence (Q12809 whole entry): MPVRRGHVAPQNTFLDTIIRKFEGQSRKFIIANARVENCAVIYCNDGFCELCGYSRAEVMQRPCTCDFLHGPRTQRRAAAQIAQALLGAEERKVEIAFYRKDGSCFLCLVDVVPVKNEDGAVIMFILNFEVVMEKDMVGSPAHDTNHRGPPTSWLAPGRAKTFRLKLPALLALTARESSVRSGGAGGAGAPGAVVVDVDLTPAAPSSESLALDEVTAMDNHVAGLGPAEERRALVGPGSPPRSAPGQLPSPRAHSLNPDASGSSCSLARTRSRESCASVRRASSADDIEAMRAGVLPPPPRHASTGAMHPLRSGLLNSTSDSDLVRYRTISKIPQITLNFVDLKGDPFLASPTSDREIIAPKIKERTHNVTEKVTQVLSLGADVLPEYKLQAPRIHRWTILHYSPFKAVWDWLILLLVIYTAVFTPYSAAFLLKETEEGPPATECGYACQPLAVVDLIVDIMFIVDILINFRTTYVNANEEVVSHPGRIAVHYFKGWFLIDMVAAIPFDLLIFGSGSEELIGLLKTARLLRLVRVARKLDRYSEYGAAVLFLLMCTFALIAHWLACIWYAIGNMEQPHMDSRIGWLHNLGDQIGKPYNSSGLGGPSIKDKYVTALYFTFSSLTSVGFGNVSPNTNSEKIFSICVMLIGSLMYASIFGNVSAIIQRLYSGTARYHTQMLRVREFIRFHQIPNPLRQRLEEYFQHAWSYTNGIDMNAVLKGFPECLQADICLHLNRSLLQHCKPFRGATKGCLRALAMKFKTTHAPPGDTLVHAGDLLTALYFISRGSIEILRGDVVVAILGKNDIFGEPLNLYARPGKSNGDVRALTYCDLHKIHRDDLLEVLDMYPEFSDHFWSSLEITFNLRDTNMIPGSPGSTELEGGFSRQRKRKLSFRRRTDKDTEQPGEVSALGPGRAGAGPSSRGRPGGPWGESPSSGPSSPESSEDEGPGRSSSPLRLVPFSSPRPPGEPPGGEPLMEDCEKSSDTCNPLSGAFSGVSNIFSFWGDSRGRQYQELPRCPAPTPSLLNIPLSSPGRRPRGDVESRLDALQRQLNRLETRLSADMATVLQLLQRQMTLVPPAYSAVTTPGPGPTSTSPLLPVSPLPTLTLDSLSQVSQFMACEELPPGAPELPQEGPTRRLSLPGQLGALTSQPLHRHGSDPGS
ASSAY OVERVIEW: Inhibition of human ERG by plate based planar patch clamp assay
pIC50: −log10 of the molar value.
Listing of entries alongside the reported pIC50.

STRUCTURE SMILES STRING	TESTED SYSTEM	pIC50
C[C@@H]1Cc2c(ccc3[nH]ncc23)[C@@H](c2c(F)cc(/C=C/C(=O)O)cc2F)N1CC(C)(F)F	Voltage-gated inwardly rectifying potassium channel KCNH2 (Homo sapiens)	< 4.00
C[C@@H]1Cc2c(ccc3[nH]ncc23)[C@@H](c2c(F)cc(/C=C/C(=O)O)cc2F)N1CC(C)(C)F	Voltage-gated inwardly rectifying potassium channel KCNH2 (Homo sapiens)	< 4.00

* * *

Listing of entries alongside the reported bioavailability.
ASSAY OVERVIEW: Oral bioavailability in dog at 1 mg/kg
Format: ADME, organism-based, Canis lupus familiaris
COND: in vivo
ENDPOINT LABEL: bioavailability (%)

STRUCTURE SMILES STRING	VAL
COc1cc(/C=C/C(=O)O)ccc1[C@@H]1c2ccc3[nH]ncc3c2C[C@@H](C)N1CC(C)(F)F	45
C[C@@H]1Cc2c(ccc3[nH]ncc23)[C@@H](c2c(F)cc(/C=C/C(=O)O)cc2F)N1CC(C)(C)F	45
C[C@@H]1Cc2c(ccc3[nH]ncc23)[C@@H](c2c(F)cc(/C=C/C(=O)O)cc2F)N1CC(C)(F)F	36

* * *

TESTED SYSTEM: Estrogen receptor (Homo sapiens, UniProt P03372)
Sequence (P03372 whole entry): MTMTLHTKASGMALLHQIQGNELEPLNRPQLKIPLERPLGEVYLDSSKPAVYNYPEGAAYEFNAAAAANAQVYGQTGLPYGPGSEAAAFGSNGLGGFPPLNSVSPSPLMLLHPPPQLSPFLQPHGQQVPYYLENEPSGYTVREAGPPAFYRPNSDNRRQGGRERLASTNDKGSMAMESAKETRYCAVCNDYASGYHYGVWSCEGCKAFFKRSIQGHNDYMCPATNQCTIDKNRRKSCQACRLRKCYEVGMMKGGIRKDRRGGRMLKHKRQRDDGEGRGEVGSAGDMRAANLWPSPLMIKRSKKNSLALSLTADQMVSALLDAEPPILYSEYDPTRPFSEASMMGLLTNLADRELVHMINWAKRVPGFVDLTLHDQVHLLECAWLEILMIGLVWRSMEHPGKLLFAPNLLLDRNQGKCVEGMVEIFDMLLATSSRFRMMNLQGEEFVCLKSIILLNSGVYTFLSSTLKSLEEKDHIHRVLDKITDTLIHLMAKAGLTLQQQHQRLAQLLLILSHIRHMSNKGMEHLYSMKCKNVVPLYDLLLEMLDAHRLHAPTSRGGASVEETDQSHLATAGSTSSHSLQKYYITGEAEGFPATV
ASSAY OVERVIEW: Induction of ERalpha degradation in human MCF7 cells after 18 to 24 hrs by in multiplexed cell assay
Format: cell-based

MOLECULE	RELATIONAL OPERATOR	IC50 / nM
CC(C)CN1[C@H](c2ccc(/C=C/C(=O)O)cc2)c2ccc3[nH]ncc3c2CC1(C)C	=	1.58
C[C@@H]1Cc2c(ccc3[nH]ncc23)[C@@H](c2c(F)cc(/C=C/C(=O)O)cc2F)N1CC(C)(C)F	=	0.251
C[C@@H]1Cc2c(ccc3[nH]ncc23)[C@@](C)(c2c(F)cc(/C=C/C(=O)O)cc2F)N1CC(C)(F)F	=	0.794
CC(C)CN1[C@H](c2c(F)cc(/C=C/C(=O)O)cc2F)c2ccc3[nH]ncc3c2C[C@H]1C	=	0.794
COc1cc(/C=C/C(=O)O)c(F)cc1[C@@H]1c2ccc3[nH]ncc3c2C[C@@H](C)N1CC(C)(F)F	=	0.316
COc1cc(/C=C/C(=O)O)ccc1[C@@H]1c2ccc3[nH]ncc3c2C[C@@H](C)N1CC(C)(F)F	=	1
COc1c([C@@H]2c3ccc4[nH]ncc4c3C[C@@H](C)N2CC(C)(F)F)ccc(/C=C/C(=O)O)c1F	=	6.31
COc1cc(/C=C/C(=O)O)cc(F)c1[C@@H]1c2ccc3[nH]ncc3c2C[C@@H](C)N1CC(C)(F)F	=	0.2
COc1cc(/C=C/C(=O)O)ccc1[C@]1(C)c2ccc3[nH]ncc3c2C[C@@H](C)N1CC(C)(C)F	=	2.51
C[C@@H]1Cc2c(ccc3[nH]ncc23)[C@@H](c2c(F)cc(/C=C/C(=O)O)cc2F)N1CC(C)(F)F	=	0.398
C[C@@H]1Cc2c(ccc3[nH]ncc23)[C@@](C)(c2c(F)cc(/C=C/C(=O)O)cc2F)N1CC(C)(C)F	=	0.631
CC(C)CN1CCc2cccc3[nH]cc(c23)C1c1ccc(/C=C/C(=O)O)cc1 (configuration not stated)	>	10000
C[C@@H]1Cc2c(ccc3[nH]ncc23)[C@@H](c2ccc(/C=C/C(=O)O)cc2)N1CC(C)(C)F	=	0.316
CC(C)CN1[C@H](c2ccc(/C=C/C(=O)O)cc2)c2ccc3[nH]ncc3c2C[C@H]1C	=	0.631
CC(C)CN1CCc2c(ccc3[nH]ncc23)[C@H]1c1ccc(/C=C/C(=O)O)cc1	=	6.31
CC(C)CN1CCc2c(ccc3[nH]ccc23)C1c1ccc(/C=C/C(=O)O)cc1 (configuration not stated)	=	63.1
COc1cc(/C=C/C(=O)O)ccc1[C@@H]1c2ccc3[nH]ncc3c2C[C@@H](C)N1CC(C)(C)F	=	0.631

* * *

ASSAY OVERVIEW: Fraction unbound in Alderley Park Han Wistar rat plasma by equilibrium dialysis
Type: ADME, cell-free

MOLECULE	fraction unbound
COc1cc(/C=C/C(=O)O)ccc1[C@@H]1c2ccc3[nH]ncc3c2C[C@@H](C)N1CC(C)(C)F	0.046
CC(C)CN1CCc2c(ccc3[nH]ccc23)C1c1ccc(/C=C/C(=O)O)cc1 (stereo not drawn)	0.068
COc1cc(/C=C/C(=O)O)ccc1[C@@H]1c2ccc3[nH]ncc3c2C[C@@H](C)N1CC(C)(F)F	0.022
CC(C)CN1[C@H](c2ccc(/C=C/C(=O)O)cc2)c2ccc3[nH]ncc3c2CC1(C)C	0.066
CC(C)CN1[C@H](c2c(F)cc(/C=C/C(=O)O)cc2F)c2ccc3[nH]ncc3c2C[C@H]1C	0.0052
C[C@@H]1Cc2c(ccc3[nH]ncc23)[C@@](C)(c2c(F)cc(/C=C/C(=O)O)cc2F)N1CC(C)(C)F	0.0023
CC(C)CN1CCc2cc(O)ccc2[C@H]1c1ccc(/C=C/C(=O)O)cc1	0.037
C[C@@H]1Cc2c(ccc3[nH]ncc23)[C@@](C)(c2c(F)cc(/C=C/C(=O)O)cc2F)N1CC(C)(F)F	0.0076
C[C@@H]1Cc2c(ccc3[nH]ncc23)[C@@H](c2ccc(/C=C/C(=O)O)cc2)N1CC(C)(C)F	0.015
C[C@@H]1Cc2c(ccc3[nH]ncc23)[C@@H](c2c(F)cc(/C=C/C(=O)O)cc2F)N1CC(C)(F)F	0.013
CC(C)CN1CCc2c(ccc3[nH]ncc23)[C@H]1c1ccc(/C=C/C(=O)O)cc1	0.036
C[C@@H]1Cc2c(ccc3[nH]ncc23)[C@@H](c2c(F)cc(/C=C/C(=O)O)cc2F)N1CC(C)(C)F	0.0083
CC(C)CN1[C@H](c2ccc(/C=C/C(=O)O)cc2)c2ccc3[nH]ncc3c2C[C@H]1C	0.034
